System: Bacteria
Test Name: Inhibition of bacterial metallo-beta-lactamase VIM-2 preincubated for 5 mins followed by nitrocefin addition by spectrophotometer analysis
The source made the active and inactive calls. The rule behind the calls is not given here.
Outcome Measure: inhibition

[[record]]
compound = "Cl.O=C(Cc1ccsc1)NC(C1CCCCN1)P(=O)(O)O (centres undefined)"
assay_system = "Bacteria"
recorded_result = "inactive"

[[record]]
compound = "Cl.O=C(Cc1csc2ccccc12)NC(C1CCCCN1)P(=O)(O)O (centres undefined)"
assay_system = "Bacteria"
recorded_result = "inactive"

[[record]]
compound = "Cc1[nH]c(=S)sc1CC(=O)NC(C1CCCCN1)P(=O)(O)O (stereo in doubt; form 2)"
assay_system = "Bacteria"
recorded_result = "inactive"

[[record]]
compound = "Cl.O=C(Cc1cccs1)NC(C1CCCCN1)P(=O)(O)O (centres undefined)"
assay_system = "Bacteria"
recorded_result = "inactive"

